- Tested on: MDA-MB-231
- Method description: NCI tumour cell line growth inhibition, 48 h
Calls of active or inactive are those of the source. No stated cut-off is given here; in the data, active = GI50 up to about 1.1 µM and inactive = higher.
Property name: GI50

> print(dat)
                              record.smiles      recorded.result
1              Brc1ccccc2cc(-c3ccccc3)nc1-2    2.6 µM (inactive)
2  CC1=C(C(=O)NNC(=O)c2ccccc2)CC(C(=O)NNC(=O)c2ccccc2)=C(C)N1  > 100 µM (inactive)

Form field: GI50 recorded for "O=C(O)c1cc2ccccc2c(/N=N/c2ccccc2)c1O" with MDA-MB-231 (enter value) > 100 µM (inactive)

* * *

- System: SF-295
- Method description: NCI tumour cell line growth inhibition, 48 h
The source made the active and inactive calls. No stated cut-off is given here; in the data, active = GI50 up to about 1.1 µM and inactive = higher.
Your reply should match one of these outcome classes. active, inactive

Completed entries (count: 4):
Compound	Label
CCn1c2c(n(CC)c1=S)-c1c(n(CC)c(=S)n1CC)SSSS2	inactive
C/C(=C/c1ccccc1)CN(C(=O)/C=C\Sc1ccccc1)C(C)(C)C	inactive
CC(=O)OCC(OC(C)=O)C1C[C@H]2O[C@@H]3[C@H](C[C@H]2O1)O[C@@]1(C[C@@H]3C)C[C@H](C)[C@@H]2O[C@]3(C[C@@H]2O1)C[C@H]1O[C@H]2[C@H](C)[C@H]4OC(=O)C[C@H]5CC[C@@H]6OC7[C@H]8O[C@]9(CC[C@H]%10CC(=O)[C@H](CC[C@H]%11C[C@@H](C)C(=O)C(C[C@@H]4O[C@H]2C[C@H]1O3)O%11)O%10)CC8O[C@@H]7[C@@H](O9)[C@H]6O5 (stereo not given in full)	active
COc1cc2cccc(/N=C/c3c(Br)ccc(OC)c3OC(C)C)c2cc1OC	inactive

// param item: CC1=NN(C(=O)c2ccncc2)C(=O)C1/N=N/c1ccc2ccccc2c1 (stereo not given) ; yields the recorded call inactive

* * *

- Test system: IGROV-1
- Method description: NCI tumour cell line growth inhibition, 48 h
Active and inactive are the calls of the source. Cut-off read from the data, not from the text of the source: active = GI50 up to about 1.1 µM and inactive = higher.
Property name: GI50

> print(dat)
                   molecule     recorded.result
1  O=C(O)c1cc2ccccc2c(O)c1O  20.2 µM (inactive)

Form field: GI50 recorded for "CC(CCc1nc2ccccc2s1)(c1ccc(O)cc1)c1ccc(O)cc1" with IGROV-1 (enter value) 14.2 µM (inactive)

Form field: GI50 recorded for "CSc1nc2ccccc2c(=O)n1/N=C1\C(=O)N(CN2CCOCC2)c2ccc(Cl)cc21" with IGROV-1 (enter value) 16.8 µM (inactive)

* * *

Listing: GI50 of selected compounds
- Test system: U-251
- Method description: NCI tumour cell line growth inhibition, 48 h
Activity calls are given as the source filed them. Cut-off read from the data, not from the text of the source: active = GI50 up to about 1.1 µM and inactive = higher.

> print(dat)
                                   compound      recorded.result
1  CC(=O)N1N=C(c2c(O)ccc3ccccc23)CC1C(=O)c1ccco1 (stereo not drawn)   34.3 µM (inactive)
2  CC1CCC(O)C(C(O)CC2CC(=O)N(C)C(=O)C2)C1 (stereo not drawn)  > 100 µM (inactive)
3                         CCCCCc1cccc(=O)o1  > 100 µM (inactive)
4  CC(C)N(C(C)C)S(=O)(=O)C[C@]12CC[C@H](CC13OCC(CS(=O)(=O)c1ccccc1)O3)C2(C)C (stereo partly drawn)     52 µM (inactive)

Form field: GI50 recorded for "Cn1c(SCc2ccc([N+](=O)[O-])cc2)nnc1C12CC3CC(CC(C3)C1)C2" with U-251 (enter value) > 10 µM (inactive)

Form field: GI50 recorded for "C=C1c2[nH]c3c([N+](=O)[O-])c(OC)ccc3c2CCN1C(C)=O" with U-251 (enter value) > 100 µM (inactive)

* * *

Listing: GI50 of selected molecules
- Test system: NCI-H226
- Method description: NCI tumour cell line growth inhibition, 48 h
Calls of active or inactive are those of the source. Cut-off read from the data, not from the text of the source: active = GI50 up to about 1.1 µM and inactive = higher.

Past entries and their recorded results:
> print(dat)
                                   molecule  property.name       recorded.result
1  Cc1ccc(S(=O)(=O)N/N=C(/CC(=O)c2c(C)[n+]([O-])c3ccccc3[n+]2[O-])C(=O)Nc2ccccc2C)cc1           GI50   > 100 µM (inactive)
2  CN(Cc1cnc2nc(N)nc(N)c2n1)c1ccc(C(=O)NCCCC(=O)O)cc1           GI50  > 37.5 µM (inactive)
3  COc1cc(OCc2nc3cc(C(F)(F)F)ccc3nc2-c2ccccc2)cc(OC)c1OC           GI50   > 100 µM (inactive)

Entry COc1cccc2c1C(=O)c1c(O)c3c(c(O)c1C2=O)C[C@@](O)(C(=O)CO)CC3OC1CC(O)C(O)C(C)O1 (some centres not stated) : reported GI50 = ? 0.0218 µM (active)

Entry "CC(C)(C)C(=O)CC(=O)C(C)(C)C.CC(C)(C)C(=O)CC(=O)C(C)(C)C.[SiH4]" : reported GI50 = ? 0.0428 µM (active)

Entry "CC(CCc1nc2ccccc2s1)(c1ccc(O)cc1)c1ccc(O)cc1" : reported GI50 = ? 22.3 µM (inactive)

Entry "Cc1cc2nc3c(C#N)c(-c4ccccc4)cc(Nc4ccc(F)cc4)n3c2cc1C" : reported GI50 = ? 27.2 µM (inactive)

* * *

- Tested on: SR
- Method description: NCI tumour cell line growth inhibition, 48 h
The source made the active and inactive calls. No stated cut-off is given here; in the data, active = GI50 up to about 1.1 µM and inactive = higher.
Your reply should match one of these outcome classes. 1.0 for active, 0.0 for inactive

// param item: "Cc1nn2c(=O)n(-c3cccc(-n4nnc5c(-c6ccccc6)c(C)nn5c4=O)c3C)nnc2c1-c1ccccc1" ; yields the recorded call 0.0

// param item: "CC1=NN=C(C)C1/N=N/c1ccc2[nH]c(C)nc2c1" ; yields the recorded call 0.0

// param item: "O=P(O)(O)OP(=O)(O)O" ; yields the recorded call 0.0

// param item: "CC(CCc1nc2ccccc2s1)(c1ccc(O)cc1)c1ccc(O)cc1" ; yields the recorded call 0.0

// param item: C[N+](C)(C)CC1CCCC/C1=N\OC(=O)c1ccccc1 (stereo not drawn) ; yields the recorded call 0.0

// param item: NC(=O)C1(c2ccccc2)Nc2ccccc2S1 (stereo not drawn) ; yields the recorded call 0.0

// param item: "NCCCN(CCCN)CCc1cn(C(=O)c2ccccc2)cn1" ; yields the recorded call 0.0

// param item: CC(C)(C)OC(=O)NC(CO)c1cccc(OCc2ccccc2)c1 (stereo not drawn) ; yields the recorded call 0.0

* * *

- System: HCC 2998
- Method description: NCI tumour cell line growth inhibition, 48 h
The source made the active and inactive calls. Cut-off read from the data, not from the text of the source: active = GI50 up to about 1.1 µM and inactive = higher.
Listing: GI50 of selected molecules

> print(dat)
                                   molecule  property.name      recorded.result
1  CC(=O)OC1CN2CCC1CC2 (centres undefined) [ACECLIDINE]           GI50  > 100 µM (inactive)
2  Cc1cccc(C[C@@]2(SCc3ccccc3)C(C)(C)[C@@H]3CC[C@@]2(C)C3)n1           GI50   15.4 µM (inactive)
3  O=C(O)CC1OCC=C2CN3CCC45C6=CC(=O)C(O)=C([N+](=O)[O-])C6=NC4C1C2CC35 (centres undefined)           GI50  > 100 µM (inactive)

Okay, next one:
Entry "O=C(O)c1cc2ccccc2c(O)c1O" : reported GI50 = ? 18.8 µM (inactive)

* * *

Listing: GI50 of selected molecules
- Tested on: A549
- Method description: NCI tumour cell line growth inhibition, 48 h
Active and inactive are the calls of the source. No stated cut-off is given here; in the data, active = GI50 up to about 1.1 µM and inactive = higher.

Past entries and their recorded results:
Molecule	Test target	GI50
COc1cc(Nc2cnc3cc(C(F)(F)F)ccc3n2)cc(OC)c1OC	A549	> 100 µM (inactive)
COCN1C(N)=C(C(=O)OC(C)(C)C)C2=CC(=O)C=CC21C (stereo not drawn)	A549	18.9 µM (inactive)
CC1OC(OC2C(CO)OC(O[C@H]3CC[C@@]4(C)C(=CC[C@H]5[C@@H]6C[C@@H]7O[C@](O)(CC[C@H](C)COC8OC(CO)C(O)C(O)C8O)[C@@H](C)[C@@H]7[C@@]6(C)CC[C@@H]54)C3)C(OC3OC(C)C(O)C(O)C3O)C2O)C(O)C(O)C1O (stereo partly drawn)	A549	2.35 µM (inactive)
Cc1ccc(S(=O)(=O)c2ccc([N+](=O)[O-])o2)cc1	A549	8.81 µM (inactive)
Cc1ccccc1NC(=O)C(=O)C(C#N)c1ccc(Cl)cc1 (stereo not drawn)	A549	95.5 µM (inactive)
CN(NC(=O)CCCl)C1=NCCCCN1	A549	> 100 µM (inactive)
Cc1ccc(S(=O)(=O)N/N=C(/CC(=O)c2c(C)[n+]([O-])c3ccccc3[n+]2[O-])C(=O)Nc2ccccc2C)cc1	A549	> 100 µM (inactive)

Okay, next one:
Form field: GI50 recorded for "COc1ccccc1C1=C2C(=O)N(C)C(c3ccccc3OC)=C2C(=O)N1C" with A549 (enter value) 44.1 µM (inactive)
